B1: full-length human Draxin AVEXIS prey, wild type [human] / human Netrin-1 WT bait protein (VI+V), AVEXIS [human] (parent complex)
chain 1: GALAPGTPARNLPENHIDLPGPALWTPQASHHRRRGPGKKEWGPGLPSQAQDGAVVTATRQASRLPEAEGLLPEQSPAGLLQDKDLLLGLALPYPEKENRPPGWERTRKRSREHKRRRDRLRLHQGRALVRGPSSLMKKAELSEAQVLDAAMEESSTSLAPTMFFLTTFEAAPATEESLILPVTSLRPQQAQPRSDGEVMPTLDMALFDWTDYEDLKPDGWPSAKKKEKHRGKLSSDGNETSPAEGEPCDHHQDCLPGTCCDLREHLCTPHNRGLNNKCFDDCMCVEGLRCYAKFHRNRRVTRRKGRCVEPETANGDQGSFINV
chain 2: not shown

variants of: B1; assay: AVEXIS; average of three repeats; read off a plot
EXPERIMENTAL ENDPOINT: response

{"SEQUENCE VARIANT": "chain 1 F208A", "MEAS VALUE": "~0.055 A486 nm"}
{"SEQUENCE VARIANT": "chain 1 F208P", "MEAS VALUE": "~0.037 A486 nm"}
{"SEQUENCE VARIANT": "chain 1 L203A", "MEAS VALUE": "~0.004 A486 nm"}
{"SEQUENCE VARIANT": "chain 1 L203R", "MEAS VALUE": "~0.004 A486 nm"}
{"SEQUENCE VARIANT": "chain 1 F208R", "MEAS VALUE": "~0.021 A486 nm"}

Could you now consider this next variant?
Incoming: Give the measured response for chain 1 L203P
Outgoing: ~0.005 A486 nm

Cited source for all entries: paper PMC5871715
